- Test system: SRC
- study_conditions: concentration: 1 μM, replicates: in singlicate; n = 1;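 also: KINOMEscan kinase panel screen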
value_type: %Inh (%)
One number for each entry, in %.

| molecule | unit | %Inh |
| --- | --- | --- |
| Nc1nccc(-c2c(-c3ccc(F)cc3)ncn2C2CCN(Cc3ccccc3)CC2)n1 | % | 0 |
| Cc1ccc(NC(=O)Nc2ccc(Cl)c(C(F)(F)F)c2)cc1-c1ccc(C(=O)Nc2ccncc2)cc1 | % | 21 |
| Nc1cccc(-c2ccc3c(N)n[nH]c3c2)n1 | % | 0 |
| O=C(Nc1n[nH]c2cc(-c3ccsc3)ccc12)C1CC1 | % | 0 |
| Cc1nccc(-c2c(-c3ccc(F)cc3)ncn2CCCN2CCOCC2)n1.Cl | % | 26 |
| COc1ccc(Nc2nccc(N3CCC(NC(=O)C(C)c4ccc(Cl)cc4)CC3)n2)cc1 (centres unmarked) | % | 10 |
| Cc1ccc(NC(=O)c2ccc(Cl)cc2)cc1-c1ccc(C(=O)Nc2ccncc2)cc1 | % | 0 |
| NS(=O)(=O)c1cccc(N/C=C2\C(=O)Nc3ccc(S(=O)(=O)Cc4c(Cl)cccc4Cl)cc32)c1 | % | 0 |

Batch of 4 molecules: report %Inh for each.
1. O=C1NC(=O)C(c2ccc(Cl)cc2)=C1Nc1ccc(O)cc1
2. Cc1ccc(NC(=O)Nc2ccccc2)cc1-c1ccc(C(=O)Nc2ccncc2)cc1
3. Nc1ncnc2occ(-c3ccc4c(c3)CCN4C(=O)Cc3cc(F)ccc3F)c12
4. CS(=O)(=O)CCNCc1nc(-c2ccc3ncnc(Nc4ccc5c(cnn5Cc5ccccc5)c4)c3c2)cs1.Cl.Cl

1. 0
2. 20
3. 0
4. 0

Batch of 2 molecules: report %Inh for each.
1. CS(=O)(=O)CCNCc1nc(-c2ccc3ncnc(Nc4ccc(OCc5ccccc5)c(Cl)c4)c3c2)cs1.Cl
2. Cc1ccc(NC(=O)Nc2ccccc2F)cc1-c1ccc(C(=O)Nc2ccncc2)cc1

[0, 27]

Batch of 3 molecules: report %Inh for each.
1. Fc1ccc(-c2nn3cccc(F)c3c2-c2ccncc2)cc1
2. Cc1ccccc1-c1cc(-c2c[nH]nc2-c2ccccn2)ccn1
3. O=C(Nc1n[nH]c2nc(-c3ccco3)c(Br)cc12)C1CCN(Cc2ccccc2)C1.O=C(O)[C@H](O)[C@@H](O)C(=O)O (centres unmarked)

1
0
0

* * *

- System: NEK6
- study_conditions: concentration: 1 μM, replicates: in singlicate; n = 1
Provide the reported %Inh of each item.
One number for each entry, in %.

Record excerpt, results attached:
| compound | unit | %Inh |
| --- | --- | --- |
| COc1nccc(-c2c(-c3ccc(F)cc3)ncn2CCCN2CCOCC2)n1 | % | 0 |
| CC(=O)c1c(C)c2cnc(Nc3ccn(C)n3)nc2n(C2CCCC2)c1=O | % | 0 |
| O=c1cc(N2CCOCC2)nc2n(Cc3cccc(Cl)c3Cl)c3ccccc3n12 | % | 4 |

Batch of 8 compounds: report %Inh for each.
1. CC(=O)c1cccc(NC(=O)NC2CCN(c3ccnc(Nc4ccc(F)cc4)n3)C2)c1 (centres unmarked)
2. CCn1c(-c2ccccc2)nc2cnccc21
3. O=C1NC(=O)C(c2ccc(Cl)cc2)=C1Nc1cccc(Cl)c1
4. COc1ccc2cc(-c3nc(-c4ccccc4C(C)C)[nH]c3-c3ccncc3)ccc2c1
5. Cc1c(Cn2c(C)c(C)n3c(=O)cc(N4CCOCC4)nc23)cccc1C(F)(F)F
6. O=C(Nc1n[nH]c2nc(-c3cccs3)c(Br)cc12)C1CCCC1
7. CNc1nc(-c2ccc3c(N)n[nH]c3c2)cc(N2C[C@@H](C(=O)NC3CCCCC3)OC[C@H]2C)n1
8. CC[C@@H]1CO[C@H](C(=O)Nc2ccccc2)CN1c1cc(-c2ccc3c(N)n[nH]c3c2)nc(NC)n1

1. 0
2. 13
3. 0
4. 2
5. 0
6. 16
7. 0
8. 0

Batch of 4 compounds: report %Inh for each.
1. COc1ccc(-c2coc3ccc(-c4nnc(C)o4)cc23)cc1
2. COc1ccc(CSc2nnc(-c3ccc4c(c3)CCO4)o2)cc1
3. COc1ccc(CSc2nnc(-c3ccc4ncsc4c3)o2)cc1C(F)(F)F
4. COc1ccc(Nc2nccc(NCCNC(=O)Nc3cc(C)ccc3C)n2)cc1

1. 0
2. 0
3. 0
4. 0

Batch of 5 compounds: report %Inh for each.
1. CSc1ccc(-c2nc3n(c2-c2ccncc2)CCC3)cc1
2. COc1ccc(Nc2nccc(-c3ccc(NC(=O)c4cc5cc(F)ccc5[nH]4)cc3)n2)cc1
3. O=C(Nc1n[nH]c2nc(-c3ccco3)c(Br)cc12)C1CCN(Cc2ccccc2)C1.O=C(O)[C@H](O)[C@@H](O)C(=O)O (centres unmarked)
4. COc1ccc(Nc2nccc(N3CCC(NC(=O)c4cc5ccccc5s4)C3)n2)cc1 (centres unmarked)
5. Cn1cncc1C(=O)NC1CCN(c2ccnc(Nc3ccc(F)cc3)n2)C1 (centres unmarked)

1. 1
2. 0
3. 1
4. 0
5. 0

Batch of 6 compounds: report %Inh for each.
1. c1ccc(-c2ccnc3[nH]ccc23)cc1
2. COC(=O)c1cccc(NC(=O)NC2CCN(c3ccnc(Nc4ccc(OC)cc4)n3)C2)c1 (centres unmarked)
3. Nc1cccc(-c2ccc3c(N)n[nH]c3c2)n1
4. Nc1nccc(-c2c(-c3ccc(F)cc3)ncn2C2CCN(Cc3ccccc3)CC2)n1
5. Fc1ccc(-c2nn3cccc(F)c3c2-c2ccncc2)cc1
6. COC(=O)C(Cc1ccccc1)NC(=O)NC1CCN(c2ccnc(Nc3ccc(F)cc3)n2)C1 (centres unmarked)

1. 0
2. 0
3. 0
4. 9
5. 2
6. 0
